- Test system: B16 melanoma
- Assay Details: animal or person
- Type: in vivo
- Condition Description: 2, 3 or 5 mg/kg/day
Reported Metric: in vivo toxicity (in words)

CC(=O)OC1CCc2c3c(n(C(C)=O)c21)C(=O)C(N1CC1)=CC3=O (centres unmarked) = toxic
CC(=O)OC1CCc2c3c(n(C(C)=O)c21)C(=O)C(N1CC1)=C(C)C3=O (centres unmarked) = without any toxicity
CC1=C(N2CC2)C(=O)c2[nH]c3c(c2C1=O)CCC3O (centres unmarked) = without any toxicity

* * *

- Test system: B16 melanoma
- Assay Details: animal or person
- Assay type: in vivo
- Condition Description: 5 mg/Kg/Day on days 1, 5, 9; T/C at day 25; <40% active
Reported Metric: In vivo T/C (Treated/Control)

Please report the recorded In vivo T/C (Treated/Control) for CC(=O)OC1CCc2c3c(n(C(C)=O)c21)C(=O)C(N1CC1)=C(C)C3=O (stereo not shown) .
15%

* * *

Would you mind telling me the reported melting point of each entry?
Numeric only. Scale: °C

Please report the recorded melting point for CC(=O)OC1CCc2c1[nH]c1c2C(=O)C(N2CC2)=CC1=O (stereo not drawn) .
165

Please report the recorded melting point for CC(=O)OC1CCc2c3c(n(C(C)=O)c21)C(=O)C(C)=C(N1CC1)C3=O (stereo not drawn) .
156

Please report the recorded melting point for CC(=O)OC1CCc2c3c(n(C(C)=O)c21)C(=O)C=C(N1CC1)C3=O (stereo not drawn) .
140

Please report the recorded melting point for CC(=O)OC1CCc2c1[nH]c1c2C(=O)C(N2CC2)=C(C)C1=O (stereo not drawn) .
165

Please report the recorded melting point for CC1=C(N2CC2)C(=O)c2c(CO)c(CO)n(C)c2C1=O .
165

Please report the recorded melting point for CC(=O)OC1CCc2c3c(n(C)c21)C(=O)C(N1CC1)=C(C)C3=O (stereo not drawn) .
157
